Data provenance is paper PMC6534341.

- Target: α-synuclein (Homo sapiens, UniProt P37840, A91C)
- Construct: gene SNCA
- Experiment: ASYN-CONA on-bead aggregation assay (confocal bead ring intensity, […] EtOH, […] h)
- Format: biochemical
- Condition description: read-out: IC50
pIC50: −log10 of the molar value.
Parameter: pIC50

(P) CO[C@H]1/C=C/O[C@@]2(C)Oc3c(C)c(O)c4c(O)c(c(/C=N/N5CCN(C)CC5)c(O)c4c3C2=O)NC(=O)/C(C)=C\C=C\[C@H](C)[C@H](O)[C@@H](C)[C@@H](O)[C@@H](C)[C@H](OC(C)=O)[C@@H]1C
(Q) COc1cc(/C=C/C(=O)CC(=O)/C=C/c2ccc(O)c(OC)c2)ccc1O
Between P and Q , which one shows the smaller pIC50 number? API: response body contains the label of the selected item.
P
(P: 3.30, Q: 5.56)

----------
- Target: α-synuclein (Homo sapiens, UniProt P37840, A91C)
- Construct: gene SNCA
- Experiment: ASYN-CONA on-bead aggregation assay (confocal bead ring intensity, […] EtOH, […] h)
- Format: biochemical
Parameter: pIC50
Interpret pIC50 as the negative base-10 log of the concentration measured in mol/L.

So, O=c1cc(-c2ccccc2)oc2cc(O)c(O)c(O)c12 ? Its pIC50 was 5.36
